target_or_test_system: UniProt:P18031
Sequence (P18031 whole entry): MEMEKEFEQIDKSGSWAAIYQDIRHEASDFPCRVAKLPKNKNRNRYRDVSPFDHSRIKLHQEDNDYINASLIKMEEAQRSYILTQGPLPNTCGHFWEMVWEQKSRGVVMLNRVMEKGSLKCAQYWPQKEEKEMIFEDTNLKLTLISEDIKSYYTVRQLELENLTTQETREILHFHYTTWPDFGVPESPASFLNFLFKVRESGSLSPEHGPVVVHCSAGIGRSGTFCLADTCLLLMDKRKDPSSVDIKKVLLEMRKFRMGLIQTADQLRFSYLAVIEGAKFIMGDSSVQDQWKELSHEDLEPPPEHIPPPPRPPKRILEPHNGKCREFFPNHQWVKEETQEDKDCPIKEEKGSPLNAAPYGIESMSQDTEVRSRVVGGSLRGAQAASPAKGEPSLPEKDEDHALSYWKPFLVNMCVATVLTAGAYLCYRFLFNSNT
test_name: Inhibition of N-terminal His tagged recombinant human PTP1B expressed in Escherichia coli using pNPP as substrate assessed as substrate hydrolysis at 40 umol/L relative to control
condition_notes: dose 40.0 µmol/L
Numbered stars: 1 amine (or outer) side, 2 acyl side, 3 side chain; on linkers, the order of the positions; unused ones are H or OH. Square brackets hold non-standard residues; d marks the D form. Peptide text beside a SMILES is read from it. * marks the point of attachment. ξ: configuration not given here. C18 diacid = O=C(O)CCCCCCCCCCCCCCCCC(=O)*; Docosanoyl = CCCCCCCCCCCCCCCCCCCCCC(=O)*; Pentanoyl(5-Ph) = O=C(CCCCc1ccccc1)*; Malonyl = O=C(CC(=O)[*:2])[*:1]; ξR = N=C(N)NCCCC(N)C(=O)O; Pentanoyl = CCCCC(=O)*
Reported inhibition by item:

compound	inhibition
CCCCCCCCCCCCCCCCCCCCCC(=O)N[C@H](C(=O)N[C@@H](C)C(=O)N[C@@H](CCC(N)=O)C(=O)N[C@@H](CCC(=O)O)C(=O)N[C@@H](CC(C)C)C(=O)N[C@@H](CCCNC(=N)N)C(=O)NC(CCCNC(=N)N)C(=O)N[C@H](C(=O)NCC(=O)N[C@@H](CC(=O)O)C(=O)N[C@@H](CCC(=O)O)C(=O)N[C@@H](Cc1ccccc1)C(=O)O)[C@@H](C)CC)[C@@H](C)CC (stereo not given in full) (Docosanoyl-IAQELR[ξR]IGDEF-OH)	> 50%
CC[C@H](C)[C@H](NC(=O)CCCCc1ccccc1)C(=O)N[C@@H](C)C(=O)N[C@@H](CCC(N)=O)C(=O)N[C@@H](CCC(=O)O)C(=O)N[C@@H](CC(C)C)C(=O)N[C@@H](CCCNC(=N)N)C(=O)N[C@@H](CCCNC(=N)N)C(=O)N[C@H](C(=O)NCC(=O)N[C@@H](CC(=O)O)C(=O)N[C@@H](CCC(=O)O)C(=O)N[C@@H](Cc1ccccc1)C(=O)O)[C@@H](C)CC ({Pentanoyl(5-Ph)}-IAQELRRIGDEF-OH)	< 50%
CC[C@H](C)[C@H](NC(=O)CC(=O)O)C(=O)N[C@@H](C)C(=O)N[C@@H](CCC(N)=O)C(=O)N[C@@H](CCC(=O)O)C(=O)N[C@@H](CC(C)C)C(=O)N[C@@H](CCCNC(=N)N)C(=O)N[C@@H](CCCNC(=N)N)C(=O)N[C@H](C(=O)NCC(=O)N[C@@H](CC(=O)O)C(=O)N[C@@H](CCC(=O)O)C(=O)N[C@@H](Cc1ccccc1)C(=O)O)[C@@H](C)CC (Malonyl-IAQELRRIGDEF-OH)	< 50%
CCCCC(=O)N[C@H](C(=O)N[C@@H](C)C(=O)N[C@@H](CCC(N)=O)C(=O)N[C@@H](CCC(=O)O)C(=O)N[C@@H](CC(C)C)C(=O)N[C@@H](CCCNC(=N)N)C(=O)N[C@@H](CCCNC(=N)N)C(=O)N[C@H](C(=O)NCC(=O)N[C@@H](CC(=O)O)C(=O)N[C@@H](CCC(=O)O)C(=O)N[C@@H](Cc1ccccc1)C(=O)O)[C@@H](C)CC)[C@@H](C)CC (Pentanoyl-IAQELRRIGDEF-OH)	< 50%
CC[C@H](C)[C@H](NC(=O)CCCCCCCCCCCCCCCCC(=O)O)C(=O)N[C@@H](C)C(=O)N[C@@H](CCC(N)=O)C(=O)N[C@@H](CCC(=O)O)C(=O)N[C@@H](CC(C)C)C(=O)N[C@@H](CCCNC(=N)N)C(=O)NC(CCCNC(=N)N)C(=O)N[C@H](C(=O)NCC(=O)N[C@@H](CC(=O)O)C(=O)N[C@@H](CCC(=O)O)C(=O)N[C@@H](Cc1ccccc1)C(=O)O)[C@@H](C)CC (stereo not given in full) ({C18 diacid}-IAQELR[ξR]IGDEF-OH)	> 50%
